Tested on: HOP-62 complex spheroids with HUVEC/MSC, viability
Experiment: Anticancer human tumor HOP-62 cell line growth inhibition [RAS];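 note: spheroids exposed to agents for seven days before readout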;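 for viability, T/C: 100% = DMSO vehicle control viability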
Conditions: second compound 0.00949 µM; first compound 0.00316 µM; stronger effect = lower value
Assign viability, T/C to each entry below.
Write the answer as a number in %, unit excluded.

Measured viability, T/C, C=CC(=O)N1CCN(c2nc(OCC3CCCN3C)nc3c(F)c(-c4nc(N)cc(C)c4C(F)(F)F)c(Cl)cc23)C(C)C1 (stereo not drawn) + CCn1c(-c2cc(N3CCN(C)CC3)cnc2C(C)OC)c2c3cc(ccc31)-c1csc(n1)CC(NC(=O)C1CC1C)C(=O)N1CCCC(N1)C(=O)OCC(C)(C)C2 : 70.7

Measured viability, T/C, CCN1CCN(Cc2ccc(Nc3ncc(F)c(-c4cc(F)c5nc(C)n(C(C)C)c5c4)n3)nc2)CC1 + CCn1c(-c2cc(N3CCN(C)CC3)cnc2C(C)OC)c2c3cc(ccc31)-c1csc(n1)CC(NC(=O)C1CC1C)C(=O)N1CCCC(N1)C(=O)OCC(C)(C)C2 : 70.7

Measured viability, T/C, C=CC(=O)N1CCN(c2nc(OCC3CCCN3C)nc3c(F)c(-c4nc(N)cc(C)c4C(F)(F)F)c(Cl)cc23)C(C)C1 (stereo not drawn) + CCn1c(-c2cccnc2C(C)OC)c2c3cc(ccc31)N1CCOC(CC(NC(=O)C(C(C)C)N(C)C(=O)C3(F)CCN(C(=O)C#CC(C)(C)N(C)C)CC3)C(=O)N3CCCC(N3)C(=O)OCC(C)(C)C2)C1 : 90.4

Measured viability, T/C, CCN1CCN(Cc2ccc(Nc3ncc(F)c(-c4cc(F)c5nc(C)n(C(C)C)c5c4)n3)nc2)CC1 + CCn1c(-c2cccnc2C(C)OC)c2c3cc(ccc31)N1CCOC(CC(NC(=O)C(C(C)C)N(C)C(=O)C3(F)CCN(C(=O)C#CC(C)(C)N(C)C)CC3)C(=O)N3CCCC(N3)C(=O)OCC(C)(C)C2)C1 : 100

Measured viability, T/C, CC(C)n1nc(-c2ccc3oc(N)nc3c2)c2c(N)ncnc21 + CCn1c(-c2cc(N3CCN(C)CC3)cnc2C(C)OC)c2c3cc(ccc31)-c1csc(n1)CC(NC(=O)C1CC1C)C(=O)N1CCCC(N1)C(=O)OCC(C)(C)C2 : 58.6

Measured viability, T/C, Nc1ccn(C2OC(CO)C(O)C2(F)F)c(=O)n1 (stereo not drawn) + CCn1c(-c2cccnc2C(C)OC)c2c3cc(ccc31)N1CCOC(CC(NC(=O)C(C(C)C)N(C)C(=O)C3(F)CCN(C(=O)C#CC(C)(C)N(C)C)CC3)C(=O)N3CCCC(N3)C(=O)OCC(C)(C)C2)C1 : 87.8

Measured viability, T/C, C=CC(=O)Nc1cc(Nc2nccc(-c3cn(C)c4ccccc34)n2)c(OC)cc1N(C)CCN(C)C + CCn1c(-c2cccnc2C(C)OC)c2c3cc(ccc31)N1CCOC(CC(NC(=O)C(C(C)C)N(C)C(=O)C3(F)CCN(C(=O)C#CC(C)(C)N(C)C)CC3)C(=O)N3CCCC(N3)C(=O)OCC(C)(C)C2)C1 : 92.3

Measured viability, T/C, CC(C)n1nc(-c2ccc3oc(N)nc3c2)c2c(N)ncnc21 + CCn1c(-c2cccnc2C(C)OC)c2c3cc(ccc31)N1CCOC(CC(NC(=O)C(C(C)C)N(C)C(=O)C3(F)CCN(C(=O)C#CC(C)(C)N(C)C)CC3)C(=O)N3CCCC(N3)C(=O)OCC(C)(C)C2)C1 : 65.3

---

Assign pIC50 to each entry below.
Test system: HOP-62 complex spheroids with HUVEC/MSC, viability
Assay: Anticancer human tumor HOP-62 cell line growth inhibition [RAS];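 note: spheroids exposed to agents for seven days before readout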
Details: curve of first compound; second compound 0.003 µM
Answer as the number alone; pIC50 is minus log10 of concentration in mol/L.

Test item Cc1nc(N2CCC3(CC2)COC(C)C3N)c(CO)nc1Sc1ccnc(N)c1Cl (stereo not drawn) + CCn1c(-c2cccnc2C(C)OC)c2c3cc(ccc31)N1CCOC(CC(NC(=O)C(C(C)C)N(C)C(=O)C3(F)CCN(C(=O)C#CC(C)(C)N(C)C)CC3)C(=O)N3CCCC(N3)C(=O)OCC(C)(C)C2)C1 ; HOP-62 complex spheroids with HUVEC/MSC, viability; reported pIC50 was 6.27

Test item CCC(CC)c1cc(NC2CCC(N)C2)n2nccc2n1 (stereo not drawn) + CCn1c(-c2cc(N3CCN(C)CC3)cnc2C(C)OC)c2c3cc(ccc31)-c1csc(n1)CC(NC(=O)C1CC1C)C(=O)N1CCCC(N1)C(=O)OCC(C)(C)C2 ; HOP-62 complex spheroids with HUVEC/MSC, viability; reported pIC50 was 5.72

Test item CC(Nc1ccc2c(c1)OCCn1cc(N3C(=O)OCC3C(F)F)nc1-2)C(N)=O (stereo not drawn) + CCn1c(-c2cccnc2C(C)OC)c2c3cc(ccc31)N1CCOC(CC(NC(=O)C(C(C)C)N(C)C(=O)C3(F)CCN(C(=O)C#CC(C)(C)N(C)C)CC3)C(=O)N3CCCC(N3)C(=O)OCC(C)(C)C2)C1 ; HOP-62 complex spheroids with HUVEC/MSC, viability; reported pIC50 was 6.19

Test item CC(C)NCC(C(=O)N1CCN(c2ncnc3c2C(C)CC3O)CC1)c1ccc(Cl)cc1 (stereo not drawn) + CCn1c(-c2cccnc2C(C)OC)c2c3cc(ccc31)N1CCOC(CC(NC(=O)C(C(C)C)N(C)C(=O)C3(F)CCN(C(=O)C#CC(C)(C)N(C)C)CC3)C(=O)N3CCCC(N3)C(=O)OCC(C)(C)C2)C1 ; HOP-62 complex spheroids with HUVEC/MSC, viability; reported pIC50 was 5.66

---

System: HOP-62 complex spheroids with HUVEC/MSC, viability
Assay: Anticancer human tumor HOP-62 cell line growth inhibition [RAS];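 note: spheroids exposed to agents for seven days before readout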;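 for viability, T/C: 100% = DMSO vehicle control viability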
Details: second compound 0.0949 µM; first compound 0.003 µM; stronger effect = lower value
measurement-label: viability, T/C (%)
Write the answer as a number in %, unit excluded.

Measured viability, T/C, CC1(C)CCC(Nc2ncc(C(F)(F)F)c(-c3c[nH]c4c(P(C)(C)=O)c(C#N)ccc34)n2)CN1 (centres undefined) + CCn1c(-c2cc(N3CCN(C)CC3)cnc2C(C)OC)c2c3cc(ccc31)-c1csc(n1)CC(NC(=O)C1CC1C)C(=O)N1CCCC(N1)C(=O)OCC(C)(C)C2 : 59

Measured viability, T/C, CCc1c2c(nc3ccc(O)cc13)-c1cc3c(c(=O)n1C2)COC(=O)[C@]3(O)CC + CCn1c(-c2cccnc2C(C)OC)c2c3cc(ccc31)N1CCOC(CC(NC(=O)C(C(C)C)N(C)C(=O)C3(F)CCN(C(=O)C#CC(C)(C)N(C)C)CC3)C(=O)N3CCCC(N3)C(=O)OCC(C)(C)C2)C1 : 14.8

Measured viability, T/C, CCc1c2c(nc3ccc(O)cc13)-c1cc3c(c(=O)n1C2)COC(=O)[C@]3(O)CC + CCn1c(-c2cc(N3CCN(C)CC3)cnc2C(C)OC)c2c3cc(ccc31)-c1csc(n1)CC(NC(=O)C1CC1C)C(=O)N1CCCC(N1)C(=O)OCC(C)(C)C2 : 32.5

Measured viability, T/C, CC1(C)CCC(Nc2ncc(C(F)(F)F)c(-c3c[nH]c4c(P(C)(C)=O)c(C#N)ccc34)n2)CN1 (centres undefined) + CCn1c(-c2cccnc2C(C)OC)c2c3cc(ccc31)N1CCOC(CC(NC(=O)C(C(C)C)N(C)C(=O)C3(F)CCN(C(=O)C#CC(C)(C)N(C)C)CC3)C(=O)N3CCCC(N3)C(=O)OCC(C)(C)C2)C1 : 58.5

---

Assign IC50 to each entry below.
Tested on: HOP-62 complex spheroids with HUVEC/MSC, viability
Assay: Anticancer human tumor HOP-62 cell line growth inhibition [RAS];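 note: spheroids exposed to agents for seven days before readout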
Settings: curve of first compound; second compound 0.003 µM
Write the answer as a number in nM, unit excluded.

Measured IC50, CC(Nc1ccc2c(c1)OCCn1cc(N3C(=O)OCC3C(F)F)nc1-2)C(N)=O (stereo not drawn) + CCn1c(-c2cc(N3CCN(C)CC3)cnc2C(C)OC)c2c3cc(ccc31)-c1csc(n1)CC(NC(=O)C1CC1C)C(=O)N1CCCC(N1)C(=O)OCC(C)(C)C2 : 365

Measured IC50, CC1(C)CCC(Nc2ncc(C(F)(F)F)c(-c3c[nH]c4c(P(C)(C)=O)c(C#N)ccc34)n2)CN1 (stereo not drawn) + CCn1c(-c2cc(N3CCN(C)CC3)cnc2C(C)OC)c2c3cc(ccc31)-c1csc(n1)CC(NC(=O)C1CC1C)C(=O)N1CCCC(N1)C(=O)OCC(C)(C)C2 : 274

Measured IC50, CCC(CC)c1cc(NC2CCC(N)C2)n2nccc2n1 (stereo not drawn) + CCn1c(-c2cccnc2C(C)OC)c2c3cc(ccc31)N1CCOC(CC(NC(=O)C(C(C)C)N(C)C(=O)C3(F)CCN(C(=O)C#CC(C)(C)N(C)C)CC3)C(=O)N3CCCC(N3)C(=O)OCC(C)(C)C2)C1 : 1980

Measured IC50, CC(C)NCC(C(=O)N1CCN(c2ncnc3c2C(C)CC3O)CC1)c1ccc(Cl)cc1 (stereo not drawn) + CCn1c(-c2cc(N3CCN(C)CC3)cnc2C(C)OC)c2c3cc(ccc31)-c1csc(n1)CC(NC(=O)C1CC1C)C(=O)N1CCCC(N1)C(=O)OCC(C)(C)C2 : 2300

Measured IC50, NC1c2ccccc2OC12CCN(c1cnc3c(N4CCCc5ncccc54)n[nH]c3n1)CC2 (stereo not drawn) + CCn1c(-c2cc(N3CCN(C)CC3)cnc2C(C)OC)c2c3cc(ccc31)-c1csc(n1)CC(NC(=O)C1CC1C)C(=O)N1CCCC(N1)C(=O)OCC(C)(C)C2 : 72

Measured IC50, O=C(c1ccc(F)c(F)c1Nc1ccc(I)cc1F)N1CC(O)([C@@H]2CCCCN2)C1 + CCn1c(-c2cc(N3CCN(C)CC3)cnc2C(C)OC)c2c3cc(ccc31)-c1csc(n1)CC(NC(=O)C1CC1C)C(=O)N1CCCC(N1)C(=O)OCC(C)(C)C2 : 113

Measured IC50, C=CC(=O)Nc1cc(Nc2nccc(-c3cn(C)c4ccccc34)n2)c(OC)cc1N(C)CCN(C)C + CCn1c(-c2cc(N3CCN(C)CC3)cnc2C(C)OC)c2c3cc(ccc31)-c1csc(n1)CC(NC(=O)C1CC1C)C(=O)N1CCCC(N1)C(=O)OCC(C)(C)C2 : 688
